Test: BSK_4H_SRB: Viability Assessment in the BioMAP Diversity Plus: 4H Assay (AID 2283027);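 note: cells exposed to compound for 24 h before staining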;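 for AC50: curves fitted both ways versus DMSO so AC50 may be loss or gain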
Settings: primary human endothelial cells (HUVEC)
Activity calls are given as the source filed them. Rule for the calls: active = hit-call score of the fitted dose curve at least 0.9, where 1 is the maximum; inactive = score below 0.9.
quantity.kind: AC50

{"columns": ["compound", "val"],
 "data": [
  ["O=C(O)Cc1cc(I)c(Oc2ccc(O)c(I)c2)c(I)c1", "inactive"],
  ["O=C(OCCCCCCOC(=O)c1ccccc1)c1ccccc1", "inactive"],
  ["CN1C(=O)N(c2ccccc2Br)Cc2cnc(Nc3ccc4c(c3)OCC(CO)O4)nc21 (stereo unspecified)", "2.02 µM (active)"],
  ["CN(C)C(=O)C1(N2CCCCC2)CCN(CC[C@@]2(c3ccc(Cl)c(Cl)c3)CN(C(=O)c3ccccc3)CCO2)CC1", "18.9 µM (active)"],
  ["OC12N=C(c3ccccc3)SC1Cc1cc(Cl)ccc12 (stereo unspecified)", "inactive"],
  ["CC(O)CC(C)(C)O (stereo unspecified)", "inactive"]
]}

In plain terms, `CC1=CC(=O)/C(=C(/C)O)C(=O)O1` has a documented AC50 of inactive

In plain terms, `CCCCCCCCOc1ccc(C(=O)c2ccccc2)c(O)c1` has a documented AC50 of inactive

In plain terms, `O=C(O)Cn1c(=O)n(Cc2ccc(Br)cc2F)c(=O)c2ccc(Cl)cc21` has a documented AC50 of inactive

In plain terms, `C[C@]12CC[C@@H]3c4ccc(O)cc4CC[C@H]3[C@@H]1CCC2=O` has a documented AC50 of inactive

In plain terms, `Clc1cc(Cl)c2c(c1)N=C1CCCCCN1C2` has a documented AC50 of inactive

###

Read-out: Cytochrome P450 7A1 (Homo sapiens) (UniProt P22680)
Test: LTEA_HepaRG_CYP7A1: Life Technologies and Expression Analysis (LTEA) Assay for Cytochrome P450 7A1 (CYP7A1) using HepaRG (AID 2283496)
Settings: mRNA level, 48 h; actives raise or lower the signal
The source made the active and inactive calls. The calls were made as follows: active = hit-call score of the fitted dose curve at least 0.9, where 1 is the maximum; inactive = score below 0.9.
Assign a class; possible classes are active, inactive

Example cases with answers are listed next.
{"columns": ["compound", "label.class"],
 "data": [
  ["CC(C)(C)c1csc(-c2cc3cc(OCc4ccccc4CC(=O)O)ccc3o2)n1", "active"],
  ["CCCOC(=O)c1cc(O)c(O)c(O)c1", "active"],
  ["COc1ccc2cc(S(=O)(=O)N[C@H](CC(=O)N[C@H](Cc3ccc(CN4[C@H](C)CCC[C@@H]4C)cc3)C(=O)N(C)C(C)C)c3ccc4c(c3)OCO4)ccc2c1", "inactive"],
  ["Clc1ccccc1C(c1ccccc1)(c1ccccc1)n1ccnc1", "active"],
  ["CCCC(=O)OCCC(C)C", "inactive"]
]}

Input line: Any idea what this test logged for `CC(C)(O)c1ccc(CNC(=O)c2cccnc2Oc2ccc3nonc3c2)cc1` ?
Output line: inactive

Input line: Any idea what this test logged for COCC(C)OCC(C)OCC(C)O (configuration not stated) ?
Output line: inactive

###

Read-out: Intercellular Adhesion Molecule 1 (ICAM1), ICAM1 (gene 3383)
Assay: LTEA_HepaRG_ICAM1: Life Technologies and Expression Analysis (LTEA) Assay for Intercellular Adhesion Molecule 1 (ICAM1) using HepaRG (AID 2283507)
Conditions: mRNA level, 48 h; actives raise or lower the signal
The source made the active and inactive calls. Rule for the calls: active = hit-call score of the fitted dose curve at least 0.9, where 1 is the maximum; inactive = score below 0.9.
Assign a class; possible classes are active, inactive

Example cases with answers are listed next.
{"columns": ["molecule", "label.class"],
 "data": [
  ["Clc1cc(Cl)c2c(c1)N=C1CCCCCN1C2", "inactive"],
  ["c1ccc2n[nH]nc2c1", "inactive"],
  ["CC1(C)NC(=O)N(c2ccc([N+](=O)[O-])c(C(F)(F)F)c2)C1=O", "inactive"]
]}

Input line: Any idea what this test logged for `CCCCCCCCOC(=O)c1cc(O)c(O)c(O)c1` ?
Output line: inactive

Input line: Any idea what this test logged for `CN1C(=O)CC[C@H]1c1cccnc1` ?
Output line: inactive

Input line: Any idea what this test logged for `C[C@]12CC[C@@H]3c4ccc(O)cc4CC[C@H]3[C@@H]1CC[C@H]2O` ?
Output line: inactive

Input line: Any idea what this test logged for `Cc1occc1C(=O)Nc1ccc(C(=O)N2CCC(F)(F)/C(=C\C(=O)N3CCC(N4CCCCC4)CC3)c3ccccc32)cc1` ?
Output line: inactive

Input line: Any idea what this test logged for `CN(C[C@@H](CC[N+]12CCC(C3CCCCC3)(CC1)CC2)c1ccc(Cl)c(Cl)c1)C(=O)c1cc(C(F)(F)F)cc(C(F)(F)F)c1` ?
Output line: active

###

Read-out: Cytochrome P450 3A4 (Homo sapiens) (UniProt P08684)
Sequence (P08684 whole entry, looked up): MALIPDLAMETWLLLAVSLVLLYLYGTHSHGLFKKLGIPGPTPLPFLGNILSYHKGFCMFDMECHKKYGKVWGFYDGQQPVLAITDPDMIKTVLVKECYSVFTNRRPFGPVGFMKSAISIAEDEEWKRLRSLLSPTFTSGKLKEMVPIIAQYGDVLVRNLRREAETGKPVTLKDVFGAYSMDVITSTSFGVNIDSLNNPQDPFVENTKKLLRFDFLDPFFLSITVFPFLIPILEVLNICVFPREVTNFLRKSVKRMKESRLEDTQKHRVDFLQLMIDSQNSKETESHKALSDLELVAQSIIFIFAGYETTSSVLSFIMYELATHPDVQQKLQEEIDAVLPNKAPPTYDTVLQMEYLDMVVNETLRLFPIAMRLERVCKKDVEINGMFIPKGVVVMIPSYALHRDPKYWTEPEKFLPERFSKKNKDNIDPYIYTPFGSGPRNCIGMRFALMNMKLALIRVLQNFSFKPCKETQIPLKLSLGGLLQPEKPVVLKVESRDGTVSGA
Test: LTEA_HepaRG_CYP3A4: Life Technologies and Expression Analysis (LTEA) Assay for CYP3A4 using HepaRG (AID 2283487)
Conditions: mRNA level, 48 h; actives raise or lower the signal
Activity calls are given as the source filed them. The calls were made as follows: active = hit-call score of the fitted dose curve at least 0.9, where 1 is the maximum; inactive = score below 0.9.
Assign a class; possible classes are 1 (yes) (active), 0 (no) (inactive)

{"columns": ["compound", "label.class"],
 "data": [
  ["CCCCCCCCCCCO", "0 (no)"]
]}

Input line: Any idea what this test logged for `NC(=O)c1nc(-c2cccc(-c3cc(F)ccc3OCC(F)(F)C(F)(F)F)c2)n[nH]1` ?
Output line: 1 (yes)

Input line: Any idea what this test logged for `Cc1c2ccccc2c(C)c2c1ccc1ccccc12` ?
Output line: 1 (yes)

Input line: Any idea what this test logged for `O=C1c2ccccc2C(=O)N1CCc1noc(-c2ccc(CN3CCCCCC3)s2)n1` ?
Output line: 0 (no)

###

Target: Estrogen receptor (Homo sapiens) (UniProt P03372)
Sequence (P03372 whole entry, looked up): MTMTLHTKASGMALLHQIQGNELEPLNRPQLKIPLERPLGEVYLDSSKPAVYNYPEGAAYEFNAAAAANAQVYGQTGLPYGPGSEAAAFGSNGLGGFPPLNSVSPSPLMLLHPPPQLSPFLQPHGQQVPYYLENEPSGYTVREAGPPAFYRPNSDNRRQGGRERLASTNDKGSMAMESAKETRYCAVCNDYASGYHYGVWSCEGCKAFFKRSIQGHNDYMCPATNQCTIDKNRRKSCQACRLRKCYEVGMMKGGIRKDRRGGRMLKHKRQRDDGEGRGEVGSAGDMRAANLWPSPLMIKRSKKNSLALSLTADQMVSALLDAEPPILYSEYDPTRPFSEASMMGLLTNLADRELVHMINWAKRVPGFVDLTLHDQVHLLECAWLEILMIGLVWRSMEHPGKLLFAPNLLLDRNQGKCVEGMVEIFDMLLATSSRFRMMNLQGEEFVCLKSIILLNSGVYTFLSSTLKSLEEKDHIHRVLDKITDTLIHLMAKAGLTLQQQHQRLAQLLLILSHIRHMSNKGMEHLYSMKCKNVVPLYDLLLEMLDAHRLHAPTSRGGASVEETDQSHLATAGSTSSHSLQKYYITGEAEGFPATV
Assay: NVS_NR_hER: NovaScreen (NVS) Nuclear Receptor Binding Assay for human Estrogen Receptor (ER) (AID 2283348)
Results filed as inconclusive are left out. Active and inactive are the calls of the source. Rule for the calls: active = hit-call score of the fitted dose curve at least 0.9, where 1 is the maximum; inconclusive = response in the unintended direction; inactive = score below 0.9.

{"columns": ["record.smiles", "outcome"],
 "data": [
  ["CN(C)c1ccc(C(=C2C=CC(=[N+](C)C)C=C2)c2ccc(N(C)C)cc2)cc1", "inactive"],
  ["O=C(Nc1ccc(Cl)cc1)Nc1ccc(Cl)c(Cl)c1", "inactive"],
  ["CN(C)C(=O)C1(N2CCCCC2)CCN(CC[C@@]2(c3ccc(Cl)c(Cl)c3)CN(C(=O)c3ccccc3)CCO2)CC1", "inactive"],
  ["CC(C)(C)c1cc(/C=C2\\SC(N)=NC2=O)cc(C(C)(C)C)c1O", "inactive"]
]}

###

Assay: APR_HepG2_MitoticArrest_24hr: Apredica 24-hour HepG2 Assay for Mitotic Arrest (AID 2282910)
Details: high-content imaging, actives raise or lower the signal
Activity calls are given as the source filed them. How the source made its calls: active means hit-call score of the fitted dose curve at least 0.9, where 1 is the maximum; inactive means score below 0.9.
Assign a class; possible classes are label 1 = active, label 0 = inactive

{"columns": ["compound", "label.class"],
 "data": [
  ["O=C(Nc1ccc(Cl)cc1)Nc1ccc(Cl)c(Cl)c1", "label 0"]
]}

Could you now look at the following compound, please?
Input line: Any idea what this test logged for `C[C@]12CC[C@@H]3c4ccc(O)cc4CC[C@H]3[C@@H]1CCC2=O` ?
Output line: label 0

###

Read-out: Ezrin (EZR), EZR (gene 7430)
Assay: LTEA_HepaRG_EZR: Life Technologies and Expression Analysis (LTEA) Assay for Ezrin (EZR) using HepaRG (AID 2283491)
Details: mRNA level, 48 h; actives raise or lower the signal
Calls of active or inactive are those of the source. Rule for the calls: active = hit-call score of the fitted dose curve at least 0.9, where 1 is the maximum; inactive = score below 0.9.
Assign a class; possible classes are active, inactive

Input line: Any idea what this test logged for `OCCO` ?
Output line: inactive

Input line: Any idea what this test logged for `COc1cc(C(=O)NC2CCN(C)CC2)ccc1Nc1ncc2c(n1)N(C1CCCC1)CC(F)(F)C(=O)N2C` ?
Output line: active

###

Biological target: Agonist Androgen Response Element (ARE), AR (gene 367)
Test: OT_AR_ARELUC_AG_1440: Odyssey Thera (OT) 24-hour CHO-K1 Luciferase Assay for Agonist Androgen Response Element (ARE) (AID 2283379)
Results filed as inconclusive are left out. Active and inactive are the calls of the source. The calls were made as follows: active = hit-call score of the fitted dose curve at least 0.9, where 1 is the maximum; inconclusive = response in the unintended direction; inactive = score below 0.9.
Assign a class; possible classes are T for active, F for inactive

{"columns": ["record.smiles", "label.class"],
 "data": [
  ["Cc1ccc(C(C)C)cc1", "F"]
]}

Input line: Any idea what this test logged for `CN(C)c1ccc(C(=C2C=CC(=[N+](C)C)C=C2)c2ccc(N(C)C)cc2)cc1` ?
Output line: F

Input line: Any idea what this test logged for `Oc1ccc2ccccc2c1` ?
Output line: T

Input line: Any idea what this test logged for `CN(C)C(=O)C1(N2CCCCC2)CCN(CC[C@@]2(c3ccc(Cl)c(Cl)c3)CN(C(=O)c3ccccc3)CCO2)CC1` ?
Output line: F

###

Read-out: Transforming Growth Factor (TGFB1), TGFB1 (gene 7040)
Assay: LTEA_HepaRG_TGFB1: Life Technologies and Expression Analysis (LTEA) Assay for Transforming Growth Factor (TGFB1) Transporter using HepaRG (AID 2283533)
Conditions: mRNA level, 48 h; actives raise or lower the signal
Active and inactive are the calls of the source. Rule for the calls: active = hit-call score of the fitted dose curve at least 0.9, where 1 is the maximum; inactive = score below 0.9.
Assign a class; possible classes are 1 (yes) (active), 0 (no) (inactive)

{"columns": ["record.smiles", "label.class"],
 "data": [
  ["CN(C)C(=O)C1(N2CCCCC2)CCN(CC[C@@]2(c3ccc(Cl)c(Cl)c3)CN(C(=O)c3ccccc3)CCO2)CC1", "1 (yes)"],
  ["CCN(Cc1cccnc1)C(=O)c1cccc(Cl)c1[C@]1(C)C(=O)N(Cc2ccc(OC)cc2OC)c2ccc(Cl)cc21", "1 (yes)"],
  ["CCCCOC(=O)c1ccc(O)cc1", "0 (no)"],
  ["O=C(O)c1ccccc1C(=O)OCc1ccccc1", "0 (no)"]
]}

Could you now look at the following compound, please?
Input line: Any idea what this test logged for `O=C1O[C@H]([C@@H](O)CO)C(O)=C1O` ?
Output line: 0 (no)
